Test system: cucumber downy mildew (Pseudoperonospora cubenis)
Experiment: Whole-plant fungicidal test, cucumber downy mildew
Type: in vivo, Pseudoperonospora cubensis
Conditions: 500 mg/L
quantity: control against cucumber downy mildew (%)
Your answer is read as %, so omit the unit and give the number.

Consider the following illustrative entries.
COC(=O)N(OC)c1ccccc1COc1cc(-c2ccc(SC)cc2)nn1C : 100
COC(=O)N(OC)c1ccccc1COc1cc(-c2ccc(Br)cc2)nn1C : 100
COC(=O)N(OC)c1ccccc1COc1cc(-c2ccc(Cl)cc2)nn1C(C)C : 90
COC(=O)N(OC)c1ccccc1COc1cc(-c2ccccc2)nn1C : 100
COC=C(C(=O)OC)c1ccccc1COc1cc(-c2cccs2)nn1C : 100
CON=C(C(=O)OC)c1ccccc1COc1cc(-c2cccs2)nn1C : 90
CNC(=O)C(=NOC)c1ccccc1COc1cc(-c2cccs2)nn1C : 100
COC(=O)N(OC)c1ccccc1COc1cc(-c2ccc(Cl)cc2Cl)nn1C : 100
COC(=O)N(OC)c1ccccc1COc1c(C)c(-c2ccc(C)cc2)nn1C : 100
COC(=O)N(OC)c1ccccc1COc1cc(-c2ccccc2Cl)nn1C : 100

-- ask I have this molecule here, COC(=O)N(OC)c1ccccc1COc1c(C)c(-c2ccccc2)nn1C , and I need its recorded control against cucumber downy mildew.
-- reply 100

-- ask How about COC=C(C(=O)OC)c1ccccc1-c1cc(Oc2cc(-c3ccc(Cl)cc3)nn2C(C)C)ncn1 ?
-- reply 100

Source of measurements: patent US7786045B2
